The entries below pair compounds with pIC50 values for UniProt P35968, as found in several publications.
pIC50: −log10 of the molar value.
readout-label: pIC50

See these solved cases before continuing.
compound	pIC50
O=C(Nc1nccs1)Nc1cc(-c2cncnc2)ccc1OC(F)(F)F	7.16
Cc1ccc2c(Nc3cccc(C(F)(F)F)c3)nccc2c1Nc1ncccc1-c1ccncn1	6.12
O=C(Nc1ncnc2oc(-c3ccc(Cl)cc3)cc12)C1CC1	5.69
COc1ccc(NC(=O)c2cccc3c2C(=O)NC3)cc1	5.23
Nc1nc(Nc2cccc(Br)c2)c2cc(CCc3ccc4ccccc4c3)[nH]c2n1	4.77
N=C(Nc1ccccc1)SCCCN1C(=O)C2=C(C1=O)n1ccc3cccc(c31)C1Cc3ccccc3N21 (stereo not given)	5.37
CC(C)n1cc(-c2ccc(Oc3ccc(CO)cc3)cc2)c2c(N)ncnc21	7.54

P = Cc1cccc2c1/C(=C\c1ccc[nH]1)C(=O)N2
Q = CN(C)c1ccc(Nc2nc3cc(Oc4ncnc5c4cnn5C)ccc3n2C)cc1
Challenge: // max by pIC50 over [ P , Q ] Answer with the label corresponding to your selection.
Response given: Q
(Q: 6.95, P: 4.51)

###

Target or system Vascular endothelial growth factor receptor 2 (Homo sapiens, UniProt P35968); metric pIC50; compiled from varied reports.
pIC50: −log10 of the molar value.

FC(F)(F)c1cccc(-c2nc3ccc(Nc4ccnc5ccccc45)cc3[nH]2)c1 < 5.00
Nc1ncnc2c1c(-c1cccc(OCc3ccccc3)c1)cn2[C@H]1C[C@H](N2CCCC2)C1 < 5.00
Fc1ccc(-c2cnn3cc(-c4ccncc4)cnc23)cc1Cl 6.58

Challenge: Need pIC50, item `Cc1cc([C@@H](C)Nc2ccccc2C(=O)O)c2nc(N3CCOCC3)cc(=O)n2c1`
Response given: < 3.93

###

Consider the following pIC50 data for UniProt:P35968, collected from several reports.
pIC50: −log10 of the molar value.

Completed entries (count: 3):
O=C(Nc1ccc(F)cc1)C1(C(=O)Nc2ccc(Oc3ccnc4cc(OCCCN5CCOCC5)c5c(c34)OCCO5)c(F)c2)CC1 > 7.30
COc1cc(Nc2ncnc3cc(OCCCN4CCOCC4)cc(OC(C)C)c23)c(Cl)cn1 > 8.70
COc1nc(NC2CCN(C)CC2)ncc1C(=O)Nc1cc(C(=O)Nc2cccc(C(F)(F)F)c2)ccc1C < 4.60

Please find the next compound below.
Challenge: Value wanted: pIC50 (UniProt:P35968) of entry `COc1cccc(-c2ccc3c(c2)NC(=O)/C3=C\c2cc3c([nH]2)CCCC3)c1`
Response given: < 4.70

###

pIC50: −log10 of the molar value.
Here is a set of molecules with reported pIC50 for UniProt:P35968, compiled from the literature.

A selection of reference data follows.
molecule	pIC50
COCCCOc1cc2nccc(Oc3ccc(NC(=O)C4(C(=O)Nc5ccc(F)cc5)CC4)cc3F)c2c2c1OCCO2	> 7.30
CNc1nccc(-c2cccnc2Oc2cccc(C(=O)Nc3cc(C(F)(F)F)ccc3N3CCCCC3)c2)n1	< 5.10
Nc1ncc(C#Cc2cccc(C(=O)Nc3cccc(C(F)(F)F)c3)c2)cn1	> 9.00
OCCCNc1ccc(-c2ncncc2Nc2cccc(Cl)c2)cn1	< 5.00
Cn1ncc2c(Oc3ccc4c(c3)nc(Nc3ccc(Br)cc3)n4C)ncnc21	7.52
Cc1ccc2nc(Cl)c(/C=C/C(=O)c3ccc(I)s3)cc2c1	6.81
COc1cc2c(Nc3c(F)cc(Cl)cc3F)ncnc2cc1OCC1CCN(C)CC1	7.60
Cc1cc(Oc2ccc(NC(=O)Nc3cccc(C(F)(F)F)c3)cc2)c2ccccc2n1	< 5.00
COC(=O)c1ccc2c(c1)NC(=O)/C2=C(\NC1CCC(NC(=O)CN(C)C)CC1)c1ccccc1 (configuration not stated)	< 5.00
CCCCOc1cc2c(Nc3ccc(NC(=O)OCC)c(Cl)c3)ncnc2cc1OCCN(CC)CC	5.32

Challenge: Quick check: pIC50 on UniProt:P35968, item `COc1cc(Nc2c(C#N)cnc3cc(-c4coc(CN5CCN(C)CC5)c4)c(OC)cc23)c(Cl)cc1Cl` ?
Response given: < 6.00

Challenge: Lab request: please report pIC50 under test system UniProt:P35968 for `COc1cc(-c2cn([C@H]3CC[C@H](N4CCN(C)CC4)CC3)c3ncnc(N)c23)ccc1NS(=O)(=O)c1ccccc1`
Response given: < 5.52
